Values from patent US11111251B2

Molecular target: UniProtKB P11229
Sequence (P11229 1-460): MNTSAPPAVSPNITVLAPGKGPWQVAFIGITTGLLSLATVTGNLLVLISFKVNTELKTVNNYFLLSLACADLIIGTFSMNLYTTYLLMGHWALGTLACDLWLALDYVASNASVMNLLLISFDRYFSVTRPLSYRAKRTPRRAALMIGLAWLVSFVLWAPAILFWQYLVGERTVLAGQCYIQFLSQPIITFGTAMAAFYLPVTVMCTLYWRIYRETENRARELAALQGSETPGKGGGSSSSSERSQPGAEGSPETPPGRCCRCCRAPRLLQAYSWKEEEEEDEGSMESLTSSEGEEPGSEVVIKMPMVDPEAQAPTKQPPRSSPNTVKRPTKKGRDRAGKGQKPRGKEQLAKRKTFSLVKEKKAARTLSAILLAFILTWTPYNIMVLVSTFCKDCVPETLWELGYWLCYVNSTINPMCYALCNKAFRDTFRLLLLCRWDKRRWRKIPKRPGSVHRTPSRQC
Test: mAChR M1 cell-based functional assay: calcium mobilization, positive allosteric modulator mode (increase in EC20 acetylcholine response)
Conditions: Table 2; human M1; read-out: Human M1 EC50
pEC50: −log10 of the molar value.
Label scheme for pEC50: lower than 7 is 0.0, 7 and above is 1.0.

Worked examples follow.
{"columns": ["MOLECULE", "LABEL_CLASS"],
 "data": [
  ["Cc1nn(C)cc1-c1ccc(Cc2cc(C(=O)NC3CN(C(C)(C)C)C3)nc3ccsc23)cc1 [Compound 245]", 0.0],
  ["Cc1csc2c(Cc3ccc(-c4ccn(C)n4)cc3)cc(C(=O)N[C@H]3CCOC[C@@H]3O)nc12 [Compound 313]", 1.0],
  ["Cc1ccc(Cc2cc(C(=O)NC3CC4(COC4)C3)nc3ccsc23)cn1 [Compound 261]", 0.0]
]}

Asked: Entry Cc1ccc(Cc2cc(C(=O)N[C@H]3CC[C@@H]3O)nc3c(C)csc23)cn1 [Compound 99] : is its pEC50 no less than 7?
Given back: 0.0

Asked: Entry O=C(NC1CC(F)(F)C1)c1ccc(Cc2cc(C(=O)NC3CC(F)(F)C3)nc3ccsc23)cc1 [Compound 408] : is its pEC50 no less than 7?
Given back: 0.0

Asked: Dear colleague, could you confirm whether Cn1cc(-c2ccc(Cc3cc(C(=O)N[C@@H]4CCOC4)nc4ccsc34)cc2)nn1 [Compound 150] has pEC50 at or above 7?
Given back: 0.0

Asked: Confirm if pEC50 reported for the molecule O=C(NC1CC(F)C1)c1cc(Cc2ccc(-c3nccs3)cc2)c2sccc2n1 (stereo not shown) [Compound 367] is 7 or above.
Given back: 0.0

Asked: Is pEC50 at least 7? Consider Cc1ccc(Cc2cc(C(=O)N[C@@H]3CCCNC3)nc3ccsc23)cn1 [Compound 265]
Given back: 0.0

Asked: Given Cc1nc(-c2ccc(Cc3cc(C(=O)NC4CCOCC4)nc4ccsc34)cc2)co1 [Compound 230] , state whether its pEC50 is at least 7.
Given back: 0.0

Asked: Could you tell me if the measured pEC50 of Cn1ccc(-c2ccc(Cc3cc(C(=O)NC[C@@H]4CCCO4)nc4ccsc34)cn2)n1 [Compound 414] reaches 7 or more?
Given back: 0.0

Asked: Decide: is the reported value of pEC50 for Cc1ncc(Cc2cc(C(=O)N[C@@H]3CCCC[C@H]3O)nc3ccsc23)s1 [Compound 136] equal to or greater than 7?
Given back: 0.0

Asked: Check the entry O=C(NC1CCOCC1)c1cc(C(F)c2ccc(-c3cscn3)cc2)c2sccc2n1 (stereo not shown) [Compound 332] : does pEC50 equal or exceed 7?
Given back: 1.0

Asked: # check: pEC50 of Cn1ccc2nc(C(=O)N[C@@H]3CCCOC3)cc(Cc3ccc(-c4cscn4)cc3)c21 [Compound 463] is greater than or equal to 7
Given back: 0.0

Asked: Answer whether pEC50 of Cn1ccc(-c2ccc(Cc3cc(C(=O)N[C@H]4CCOC[C@@H]4O)nc4ccsc34)cc2)n1 [Compound 255] is greater than or equal to 7.
Given back: 1.0

Asked: State whether the measured pEC50 reaches 7, counting equality as reaching it, for Cn1cc(-c2ccc(Cc3cc(C(=O)NCC4CCN4)nc4ccsc34)cn2)cn1 (stereo not shown) [Compound 360]
Given back: 1.0

---

Target: human mAChR M1 (Homo sapiens)
Test: mAChR M1 cell-based functional assay: calcium mobilization, positive allosteric modulator mode (increase in EC20 acetylcholine response)
Conditions: Table 2; human M1; read-out: Human M1 EC50
ENDPOINT_NAME: log10 EC50 (log10 of the value in µM)
In plain terms, each number is the log10 of measured EC50 in µM.

// below: answered compounds
{"columns": ["COMPOUND", "TESTED_TARGET", "REPORTED_RESULT"],
 "data": [
  ["Cc1ccc(Cc2cc(C(=O)NC3CCCNC3=O)nc3ccsc23)cn1 (centres unmarked) [Compound 66]", "human mAChR M1 (Homo sapiens)", 0.87],
  ["O=C(NC1CC(F)C1)c1cc(Cc2ccc(-n3cccn3)cc2)c2sccc2n1 (centres unmarked) [Compound 280]", "human mAChR M1 (Homo sapiens)", -0.53],
  ["Cn1ccc2nc(C(=O)NC3CC4(COC4)C3)cc(Cc3ccc(-c4cscn4)cc3)c21 [Compound 452]", "human mAChR M1 (Homo sapiens)", -0.47],
  ["Cc1ccc(Cc2cc(C(=O)NC3CCN(C)CC3)nc3c(C)csc23)cn1 [Compound 112]", "human mAChR M1 (Homo sapiens)", 0.76],
  ["Cc1ccc(Cc2cc(C(=O)NC3CC(F)(F)C3)nc3ccsc23)cn1 [Compound 260]", "human mAChR M1 (Homo sapiens)", 0.73]
]}

Next compound, please.
Asked: Form: Entry = CC1(C)CC(NC(=O)c2ccc(Cc3cc(C(=O)NC4CCOC(C)(C)C4)nc4ccsc34)cc2)CCO1 (centres unmarked) [Compound 409] | System = human mAChR M1 (Homo sapiens) | log10 EC50 = ____
Given back: -0.14

---

# reported pEC50; entries follow
Target: human mAChR M1 (Homo sapiens, UniProt P11229)
Sequence (P11229 1-460): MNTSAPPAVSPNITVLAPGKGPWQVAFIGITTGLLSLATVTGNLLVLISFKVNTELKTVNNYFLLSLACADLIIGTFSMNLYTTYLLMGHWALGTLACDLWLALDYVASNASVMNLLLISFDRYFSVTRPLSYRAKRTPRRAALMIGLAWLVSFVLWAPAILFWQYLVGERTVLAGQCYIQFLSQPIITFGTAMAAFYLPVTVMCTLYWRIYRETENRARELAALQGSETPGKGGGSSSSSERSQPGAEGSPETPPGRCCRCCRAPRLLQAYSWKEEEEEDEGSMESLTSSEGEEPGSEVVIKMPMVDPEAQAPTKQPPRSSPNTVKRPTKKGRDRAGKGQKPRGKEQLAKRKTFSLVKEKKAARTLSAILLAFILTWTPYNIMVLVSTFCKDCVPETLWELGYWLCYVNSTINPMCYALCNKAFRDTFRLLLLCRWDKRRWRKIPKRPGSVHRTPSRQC
Test: mAChR M1 cell-based functional assay: calcium mobilization, positive allosteric modulator mode (increase in EC20 acetylcholine response)
Settings: Table 2; human M1; read-out: Human M1 EC50
The value called pEC50 is obtained by taking minus log10 of the concentration in mol/L.

{"columns": ["COMPOUND", "ENDPOINT_NAME", "REPORTED_RESULT"],
 "data": [
  ["COC1CC(NC(=O)c2cc(Cc3ccc(-c4cscn4)cc3)c3sccc3n2)C1 (stereo not shown)", "pEC50", 6.05],
  ["Cn1cc(-c2ccc(Cc3cc(C(=O)N[C@@H]4COCC[C@H]4O)nc4ccsc34)cc2)nn1", "pEC50", 8.21]
]}

Asked: What does the record list as pEC50 for CC(C)(C)N1CC(NC(=O)c2cc(Cc3ccc(-n4cccn4)cc3)c3sccc3n2)C1 ?
Given back: 5.84

Asked: Fill in: pEC50 of O=C(N[C@H]1COCC[C@@H]1O)c1cc(Cc2ccc(-c3nccs3)cc2)c2sccc2n1 is ___
Given back: 7.66

Asked: For the compound shown here, Cn1cc(-c2ccc(Cc3cc(C(=O)NC4CCOCC4)nc4ccn(C)c34)cn2)cn1 , give the reported pEC50.
Given back: 6.65

Asked: Using the record for O=C(NC1CCCC1=O)c1cc(Cc2ccc(-n3cccn3)cc2)c2sccc2n1 (stereo not shown) , report its pEC50.
Given back: 6.70

Asked: Please give the measured pEC50 for this compound: Cn1ccc(-c2ccc(Cc3cc(C(=O)NC[C@@H]4CCOC4)nc4ccsc34)cn2)n1
Given back: 6.34

Asked: Could you share which pEC50 value was measured for COC1CC(NC(=O)c2cc(Cc3ccc(-c4csc(C)n4)cc3)c3sccc3n2)C1 (stereo not shown) ?
Given back: 5.48

Asked: Quick one: pEC50 for O=C(N[C@@H]1CCOC1)c1cc(Cc2ccc(-c3cscn3)cc2)c2sccc2n1 ?
Given back: 5.53

Asked: Given the compound Cn1ccc(-c2ccc(Cc3cc(C(=O)NC4CCOC(C)(C)C4)nc4ccsc34)cn2)n1 (stereo not shown) , what is its reported pEC50?
Given back: 6.78

Asked: Would you mind telling me what pEC50 value was observed for O=C(N[C@H]1CCCC[C@@H]1O)c1cc(Cc2ccc(-c3cscn3)cc2)c2sccc2n1 ?
Given back: 7.34

Asked: I have this compound here, CO[C@@H]1CCCC[C@H]1NC(=O)c1cc(Cc2ccc(-c3coc(C)n3)cc2)c2sccc2n1 , and I need its recorded pEC50.
Given back: 5.87
